# target entity: Cyclin-dependent kinase 4/cyclin D1 (Homo sapiens) (UniProt P11802+P24385)
# test summary: Inhibition of recombinant human N-terminal GST-tagged CDK4 (S4 to E303 residues)/Cyclin D1 (Q4 to I295 residues) expressed in sf9 cells at 1 uM using RB-CTF as substrate by filter binding assay
Active and inactive are the calls of the source. The rule behind the calls is not given here.
Labels: true (1) for active, false (0) for inactive

compound	discrete label
CN1CCN(CCO/N=C2/C(=C3/C(=O)Nc4ccccc43)Nc3ccccc32)CC1	false (0)
O=C1Nc2ccccc2/C1=C1/Nc2ccccc2/C1=N\OCC(O)CO (centres undefined)	true (1)
O=C1Nc2cc(Br)ccc2/C1=C1/Nc2ccccc2/C1=N\O	true (1)
Cc1ccc2c(c1)NC(=O)/C2=C1\Nc2ccccc2\C1=N/O	true (1)
